The measured values listed here are drawn from ChEMBL document CHEMBL5252540.

- Tested on: LAMA-84
- assay-overview: Antiproliferative activity against human LAMA-84 cells overexpressing BCR/ABL assessed as cell growth inhibition
Counter-ions that a name gives are not always drawn.
readout-label: pIC50
Conceptually, pIC50 converts a concentration in mol/L into minus its log10.

Ask: What value of measured pIC50 is listed for Cc1ccc(NC(=O)c2ccc(CN3CCN(C)CC3)cc2)cc1Nc1nccc(-c2cccnc2)n1 [IMATINIB MESYLATE] ?
Result: 7.00

---

- System: KYSE-150 cell line
- assay-overview: Cytotoxicity against human KYSE-150 cells assessed as cell growth inhibition incubated for 48 to 96 hrs by celltiter-flor reagent based fluorescence assay
- Type: functional
readout-label: pIC50
Conceptually, pIC50 converts a concentration in mol/L into minus its log10.

Ask: What value of measured pIC50 is listed for COc1cc(C(=O)c2cn(-c3ccccc3)cc2-c2ccc(N)cc2)cc(OC)c1OC ?
Result: 7.70

---

- assay-system: Tubulin
- assay-overview: Inhibition of tubulin (unknown origin) polymerization preincubated for 15 mins followed by GTP addition by turbidity based spectrophotometer analysis
readout-label: IC50 (nM)
Write it as a number; the unit nM goes unstated.

Please review the entries below; each comes with its answer.
COc1cc(C(=O)c2cn(-c3ccccc3)cc2-c2cccc(N)c2)cc(OC)c1OC    390
COc1cc(C(=O)c2cn(-c3ccccc3)cc2-c2ccc(C)cc2)cc(OC)c1OC    2200
COc1cc(C(=O)c2cn(-c3ccccc3F)cc2-c2ccccc2)cc(OC)c1OC    2000
COc1cc(C(=O)c2cn(-c3ccc(C)cc3)cc2-c2ccccc2)cc(OC)c1OC    880
COc1cc(C(=O)c2cn(-c3ccccc3)cc2-c2ccccc2)cc(OC)c1OC    1100

// next entry
Ask: What value of measured IC50 is listed for COc1cc(C(=O)c2cn(-c3cccc(N)c3)cc2-c2ccccc2)cc(OC)c1OC ?
Result: 1100

---

inhibition overview
- assay-system: Tubulin (Homo sapiens) (UniProt P68371+Q9H4B7+P0DPH7+P68366+Q13509+Q71U36+P04350+Q3ZCM7+P07437+P68363+Q9BQE3+Q6PEY2+Q13885+Q9BVA1+Q9BUF5)
- assay-overview: Inhibition of [3H]colchicine binding to tubulin (unknown origin) at 5 uM incubated for 10 mins relative to control
- Format: protein-complex assay
Write it as a number; the unit % goes unstated.

Ask: What value of measured inhibition is listed for COc1cc(C(=O)c2cn(-c3ccccc3F)cc2-c2ccccc2)cc(OC)c1OC ?
Result: 29

Ask: What value of measured inhibition is listed for COc1cc(C(=O)c2cn(-c3ccc(F)cc3)cc2-c2ccccc2)cc(OC)c1OC ?
Result: 62

Ask: What value of measured inhibition is listed for COc1cc(C(=O)c2cn(-c3cccc(N)c3)cc2-c2ccccc2)cc(OC)c1OC ?
Result: 82

Ask: What value of measured inhibition is listed for COc1cc(C(=O)c2cn(-c3cccc(F)c3)cc2-c2ccccc2)cc(OC)c1OC ?
Result: 42

Ask: What value of measured inhibition is listed for COc1cc(C(=O)c2cn(-c3ccccc3)cc2-c2ccccc2)cc(OC)c1OC ?
Result: 66

Ask: What value of measured inhibition is listed for COc1cc(C(=O)c2cn(-c3ccccc3)cc2-c2cccc(N)c2)cc(OC)c1OC ?
Result: 57

Ask: What value of measured inhibition is listed for COc1cc(C(=O)c2cn(-c3ccccc3)cc2-c2ccc(F)cc2)cc(OC)c1OC ?
Result: 47

---

- assay-system: Tubulin
- assay-overview: Inhibition of tubulin (unknown origin) polymerization preincubated for 15 mins followed by GTP addition by turbidity based spectrophotometer analysis
pIC50 overview
Conceptually, pIC50 converts a concentration in mol/L into minus its log10.

Ask: What value of measured pIC50 is listed for COc1cc(C(=O)c2cn(-c3ccccc3)cc2-c2cccc(C)c2)cc(OC)c1OC ?
Result: 5.80

Ask: What value of measured pIC50 is listed for COc1cc(C(=O)c2cn(-c3cccc(F)c3)cc2-c2ccccc2)cc(OC)c1OC ?
Result: 5.54

Ask: What value of measured pIC50 is listed for COc1cc(C(=O)c2cn(-c3ccccc3)cc2-c2cccc(F)c2)cc(OC)c1OC ?
Result: 6.20

Ask: What value of measured pIC50 is listed for COc1cc(C(=O)c2cn(-c3ccccc3)cc2-c2ccccc2F)cc(OC)c1OC ?
Result: 6.24

Ask: What value of measured pIC50 is listed for COc1cc(C(=O)c2cn(-c3ccccc3)cc2-c2ccc(F)cc2)cc(OC)c1OC ?
Result: 6.12

Ask: What value of measured pIC50 is listed for COc1cc(C(=O)c2cn(-c3cccc(C)c3)cc2-c2ccccc2)cc(OC)c1OC ?
Result: 5.77

Ask: What value of measured pIC50 is listed for COc1cc(C(=O)c2cn(-c3ccc(F)cc3)cc2-c2ccccc2)cc(OC)c1OC ?
Result: 5.89

---

- assay-system: Tubulin (Homo sapiens) (UniProt P68371+Q9H4B7+P0DPH7+P68366+Q13509+Q71U36+P04350+Q3ZCM7+P07437+P68363+Q9BQE3+Q6PEY2+Q13885+Q9BVA1+Q9BUF5)
- assay-overview: Inhibition of [3H]colchicine binding to tubulin (unknown origin) at 5 uM incubated for 10 mins relative to control
- Assay type: protein-complex assay
inhibition overview
Just the number plus its unit, please.

COc1cc(C(=O)c2cn(-c3ccccc3)cc2-c2cccc(C)c2)cc(OC)c1OC    5.7%
COc1cc(C(=O)c2cn(-c3ccc(C)cc3)cc2-c2ccccc2)cc(OC)c1OC    79%
COc1cc(C(=O)c2cn(-c3ccccc3)cc2-c2ccccc2F)cc(OC)c1OC    72%
COc1cc(C(=O)c2cn(-c3ccccc3)cc2-c2ccc(N)cc2)cc(OC)c1OC    81%
COc1cc(C(=O)c2cn(-c3ccccc3)cc2-c2ccc(C)cc2)cc(OC)c1OC    24%
COc1cc(C(=O)c2cn(-c3cccc(C)c3)cc2-c2ccccc2)cc(OC)c1OC    82%

// next entry
Ask: What value of measured inhibition is listed for COc1cc(C(=O)c2cn(-c3ccccc3)cc2-c2cccc(F)c2)cc(OC)c1OC ?
Result: 53%
